Assay: Extrapolated human dosimetry (OLINDA/EXM, ICRP-89 phantoms)
Details: ICRP 89 Adult Female, extrapolated
reported metric: Absorbed dose (AD average) Breasts (mGy/Mbq)
API: value field is a number in mGy/Mbq; no unit string.

compound: N#C[C@@H]1CC(F)(F)CN1C(=O)CNC(=O)c1ccnc2ccc(OCCCCNC(=O)CC[C@H](NC(=O)CCC(C(=O)O)N3CCN(CC(=O)[O-])CCN(CC(=O)[O-])CCN(CC(=O)[O-])CC3)C(=O)NCCCCOc3ccc4nccc(C(=O)NCC(=O)N5CC(F)(F)C[C@H]5C#N)c4c3)cc12.[177Lu+3] (stereo partly shown) [[^177Lu]Lu-DOTAGA.Glu.(FAPI)2]
Absorbed dose (AD average) Breasts (mGy/Mbq): 2.88E-02
//
compound: N#C[C@@H]1CC(F)(F)CN1C(=O)CNC(=O)c1ccnc2ccc(OCCCCNC(=O)CC[C@H](NC(=O)CCC(C(=O)O)N3CCN(CC(=O)[O-])CCN(CC(=O)[O-])CCN(CC(=O)[O-])CC3)C(=O)NCCCCOc3ccc4nccc(C(=O)NCC(=O)N5CC(F)(F)C[C@H]5C#N)c4c3)cc12.[161Tb+3] (stereo partly shown) [[^161Tb]Tb-DOTAGA.Glu.(FAPI)2]
Absorbed dose (AD average) Breasts (mGy/Mbq): 3.94E-02
//
compound: N#C[C@@H]1CC(F)(F)CN1C(=O)CNC(=O)c1ccnc2ccc(OCCCCNC(=O)CC[C@H](NC(=O)CN3CCN(CC(=O)[O-])CCN(CC(=O)[O-])CCN(CC(=O)[O-])CC3)C(=O)NCCCCOc3ccc4nccc(C(=O)NCC(=O)N5CC(F)(F)C[C@H]5C#N)c4c3)cc12.[161Tb+3] [[^161Tb]Tb-DO3A.Glu.(FAPI)2]
Absorbed dose (AD average) Breasts (mGy/Mbq): 3.54E-02

Query compound follows.
Task: Query: Absorbed dose (AD average) Breasts; subject: N#C[C@@H]1CC(F)(F)CN1C(=O)CNC(=O)c1ccnc2ccc(OCCCCNC(=O)CC[C@H](NC(=O)CN3CCN(CC(=O)[O-])CCN(CC(=O)[O-])CCN(CC(=O)[O-])CC3)C(=O)NCCCCOc3ccc4nccc(C(=O)NCC(=O)N5CC(F)(F)C[C@H]5C#N)c4c3)cc12.[177Lu+3] [[^177Lu]Lu-DO3A.Glu.(FAPI)2]
Result: 2.57E-02

###

Test: Extrapolated human dosimetry (OLINDA/EXM, ICRP-89 phantoms)
Conditions: ICRP 89 Adult Female, extrapolated
reported metric: Absorbed dose (AD average) Thymus
Write the numeric value and follow it with the unit.

Task: Query: Absorbed dose (AD average) Thymus; subject: N#C[C@@H]1CC(F)(F)CN1C(=O)CNC(=O)c1ccnc2ccc(OCCCCNC(=O)CC[C@H](NC(=O)CN3CCN(CC(=O)[O-])CCN(CC(=O)[O-])CCN(CC(=O)[O-])CC3)C(=O)NCCCCOc3ccc4nccc(C(=O)NCC(=O)N5CC(F)(F)C[C@H]5C#N)c4c3)cc12.[161Tb+3] [[^161Tb]Tb-DO3A.Glu.(FAPI)2]
Result: 3.72E-02 mGy/Mbq

###

Assay: Extrapolated human dosimetry (OLINDA/EXM, ICRP-89 phantoms)
Conditions: ICRP 89 Adult Male, extrapolated
reported metric: Absorbed dose (AD average) Esophagus (mGy/Mbq)
API: value field is a number in mGy/Mbq; no unit string.

Guide cases for Absorbed dose (AD average) Esophagus, answers given:
molecule: N#C[C@@H]1CC(F)(F)CN1C(=O)CNC(=O)c1ccnc2ccc(OCCCCNC(=O)CC[C@H](NC(=O)CCC(C(=O)O)N3CCN(CC(=O)[O-])CCN(CC(=O)[O-])CCN(CC(=O)[O-])CC3)C(=O)NCCCCOc3ccc4nccc(C(=O)NCC(=O)N5CC(F)(F)C[C@H]5C#N)c4c3)cc12.[161Tb+3] (stereo partly shown) [[^161Tb]Tb-DOTAGA.Glu.(FAPI)2]
reading unit: mGy/Mbq
Absorbed dose (AD average) Esophagus: 2.88E-02
--
molecule: N#C[C@@H]1CC(F)(F)CN1C(=O)CNC(=O)c1ccnc2ccc(OCCCCNC(=O)CC[C@H](NC(=O)CCC(C(=O)O)N3CCN(CC(=O)[O-])CCN(CC(=O)[O-])CCN(CC(=O)[O-])CC3)C(=O)NCCCCOc3ccc4nccc(C(=O)NCC(=O)N5CC(F)(F)C[C@H]5C#N)c4c3)cc12.[177Lu+3] (stereo partly shown) [[^177Lu]Lu-DOTAGA.Glu.(FAPI)2]
reading unit: mGy/Mbq
Absorbed dose (AD average) Esophagus: 2.11E-02
--
molecule: N#C[C@@H]1CC(F)(F)CN1C(=O)CNC(=O)c1ccnc2ccc(OCCCCNC(=O)CC[C@H](NC(=O)CN3CCN(CC(=O)[O-])CCN(CC(=O)[O-])CCN(CC(=O)[O-])CC3)C(=O)NCCCCOc3ccc4nccc(C(=O)NCC(=O)N5CC(F)(F)C[C@H]5C#N)c4c3)cc12.[161Tb+3] [[^161Tb]Tb-DO3A.Glu.(FAPI)2]
reading unit: mGy/Mbq
Absorbed dose (AD average) Esophagus: 2.84E-02

Query molecule follows.
Task: Query: Absorbed dose (AD average) Esophagus; subject: N#C[C@@H]1CC(F)(F)CN1C(=O)CNC(=O)c1ccnc2ccc(OCCCCNC(=O)CC[C@H](NC(=O)CN3CCN(CC(=O)[O-])CCN(CC(=O)[O-])CCN(CC(=O)[O-])CC3)C(=O)NCCCCOc3ccc4nccc(C(=O)NCC(=O)N5CC(F)(F)C[C@H]5C#N)c4c3)cc12.[177Lu+3] [[^177Lu]Lu-DO3A.Glu.(FAPI)2]
Result: 2.06E-02

###

The compounds listed here are annotated with their Absorbed dose (AD average) Heart Wall.
Assay: Extrapolated human dosimetry (OLINDA/EXM, ICRP-89 phantoms)
Details: ICRP 89 Adult Female, extrapolated
API: value field is a number in mGy/Mbq; no unit string.

Guide cases for Absorbed dose (AD average) Heart Wall, answers given:
compound: N#C[C@@H]1CC(F)(F)CN1C(=O)CNC(=O)c1ccnc2ccc(OCCCCNC(=O)CC[C@H](NC(=O)CN3CCN(CC(=O)[O-])CCN(CC(=O)[O-])CCN(CC(=O)[O-])CC3)C(=O)NCCCCOc3ccc4nccc(C(=O)NCC(=O)N5CC(F)(F)C[C@H]5C#N)c4c3)cc12.[177Lu+3] [[^177Lu]Lu-DO3A.Glu.(FAPI)2]
reading unit: mGy/Mbq
Absorbed dose (AD average) Heart Wall: 2.49E-02
--
compound: N#C[C@@H]1CC(F)(F)CN1C(=O)CNC(=O)c1ccnc2ccc(OCCCCNC(=O)CC[C@H](NC(=O)CCC(C(=O)O)N3CCN(CC(=O)[O-])CCN(CC(=O)[O-])CCN(CC(=O)[O-])CC3)C(=O)NCCCCOc3ccc4nccc(C(=O)NCC(=O)N5CC(F)(F)C[C@H]5C#N)c4c3)cc12.[161Tb+3] (stereo partly drawn) [[^161Tb]Tb-DOTAGA.Glu.(FAPI)2]
reading unit: mGy/Mbq
Absorbed dose (AD average) Heart Wall: 6.03E-02

Query compound follows.
Task: Query: Absorbed dose (AD average) Heart Wall; subject: N#C[C@@H]1CC(F)(F)CN1C(=O)CNC(=O)c1ccnc2ccc(OCCCCNC(=O)CC[C@H](NC(=O)CN3CCN(CC(=O)[O-])CCN(CC(=O)[O-])CCN(CC(=O)[O-])CC3)C(=O)NCCCCOc3ccc4nccc(C(=O)NCC(=O)N5CC(F)(F)C[C@H]5C#N)c4c3)cc12.[161Tb+3] [[^161Tb]Tb-DO3A.Glu.(FAPI)2]
Result: 3.39E-02

###

Assay: Extrapolated human dosimetry (OLINDA/EXM, ICRP-89 phantoms)
Conditions: ICRP 89 Adult Female, extrapolated
reported metric: Absorbed dose (AD average) Rectum (mGy/Mbq)
API: value field is a number in mGy/Mbq; no unit string.

Guide cases for Absorbed dose (AD average) Rectum, answers given:
compound: N#C[C@@H]1CC(F)(F)CN1C(=O)CNC(=O)c1ccnc2ccc(OCCCCNC(=O)CC[C@H](NC(=O)CCC(C(=O)O)N3CCN(CC(=O)[O-])CCN(CC(=O)[O-])CCN(CC(=O)[O-])CC3)C(=O)NCCCCOc3ccc4nccc(C(=O)NCC(=O)N5CC(F)(F)C[C@H]5C#N)c4c3)cc12.[177Lu+3] (stereo partly shown) [[^177Lu]Lu-DOTAGA.Glu.(FAPI)2]
Absorbed dose (AD average) Rectum [mGy/Mbq]: 1.07E-01
//
compound: N#C[C@@H]1CC(F)(F)CN1C(=O)CNC(=O)c1ccnc2ccc(OCCCCNC(=O)CC[C@H](NC(=O)CCC(C(=O)O)N3CCN(CC(=O)[O-])CCN(CC(=O)[O-])CCN(CC(=O)[O-])CC3)C(=O)NCCCCOc3ccc4nccc(C(=O)NCC(=O)N5CC(F)(F)C[C@H]5C#N)c4c3)cc12.[161Tb+3] (stereo partly shown) [[^161Tb]Tb-DOTAGA.Glu.(FAPI)2]
Absorbed dose (AD average) Rectum [mGy/Mbq]: 4.17E-02
//
compound: N#C[C@@H]1CC(F)(F)CN1C(=O)CNC(=O)c1ccnc2ccc(OCCCCNC(=O)CC[C@H](NC(=O)CN3CCN(CC(=O)[O-])CCN(CC(=O)[O-])CCN(CC(=O)[O-])CC3)C(=O)NCCCCOc3ccc4nccc(C(=O)NCC(=O)N5CC(F)(F)C[C@H]5C#N)c4c3)cc12.[177Lu+3] [[^177Lu]Lu-DO3A.Glu.(FAPI)2]
Absorbed dose (AD average) Rectum [mGy/Mbq]: 7.09E-02

Query compound follows.
Task: Query: Absorbed dose (AD average) Rectum; subject: N#C[C@@H]1CC(F)(F)CN1C(=O)CNC(=O)c1ccnc2ccc(OCCCCNC(=O)CC[C@H](NC(=O)CN3CCN(CC(=O)[O-])CCN(CC(=O)[O-])CCN(CC(=O)[O-])CC3)C(=O)NCCCCOc3ccc4nccc(C(=O)NCC(=O)N5CC(F)(F)C[C@H]5C#N)c4c3)cc12.[161Tb+3] [[^161Tb]Tb-DO3A.Glu.(FAPI)2]
Result: 3.75E-02
